// values below are reported Einf
System: Mycobacterium tuberculosis Erdman (autoluminescent)
MEASUREMENT PROTOCOL: Einf, fitted maximum growth inhibition of three-drug combination (fraction); higher = stronger maximal inhibition
CONDITIONS USED: in vitro model: butyrate; time point: terminal (~4-5 doublings, model-specific)
Respond with the number and no other words.

Query: Reported Einf, compound NNC(=O)c1ccncc1 [isoniazid] + COc1c(N2C[C@@H]3CCCN[C@@H]3C2)c(F)cc2c(=O)c(C(=O)O)cn(C3CC3)c12 [moxifloxacin] + O=[N+]([O-])c1cn2c(n1)OC[C@@H](OCc1ccc(OC(F)(F)F)cc1)C2 [pretomanid] : ____
Result: 0.974

Query: Input COc1c(N2C[C@@H]3CCCN[C@@H]3C2)c(F)cc2c(=O)c(C(=O)O)cn(C3CC3)c12 [moxifloxacin] + O=[N+]([O-])c1cn2c(n1)OC[C@@H](OCc1ccc(OC(F)(F)F)cc1)C2 [pretomanid] + CO[C@H]1/C=C/O[C@@]2(C)Oc3c(C)c(O)c4c(O)c(c(/C=N/N5CCN(C6CCCC6)CC5)c(O)c4c3C2=O)NC(=O)/C(C)=C\C=C\[C@H](C)[C@H](O)[C@@H](C)[C@@H](O)[C@@H](C)[C@H](OC(C)=O)[C@@H]1C [rifapentine]
Result: 0.963

Query: Input COc1nc2ccc(Br)cc2cc1[C@@H](c1ccccc1)[C@@](O)(CCN(C)C)c1cccc2ccccc12 [bedaquiline] + NNC(=O)c1ccncc1 [isoniazid] + COc1c(N2C[C@@H]3CCCN[C@@H]3C2)c(F)cc2c(=O)c(C(=O)O)cn(C3CC3)c12 [moxifloxacin]
Result: 0.973
